TARGET ENTITY: exon 20 T790M mutant-type EGFR enzyme (Homo sapiens, UniProt P00533, T790M)
Sequence (P00533 25-1210 T790M): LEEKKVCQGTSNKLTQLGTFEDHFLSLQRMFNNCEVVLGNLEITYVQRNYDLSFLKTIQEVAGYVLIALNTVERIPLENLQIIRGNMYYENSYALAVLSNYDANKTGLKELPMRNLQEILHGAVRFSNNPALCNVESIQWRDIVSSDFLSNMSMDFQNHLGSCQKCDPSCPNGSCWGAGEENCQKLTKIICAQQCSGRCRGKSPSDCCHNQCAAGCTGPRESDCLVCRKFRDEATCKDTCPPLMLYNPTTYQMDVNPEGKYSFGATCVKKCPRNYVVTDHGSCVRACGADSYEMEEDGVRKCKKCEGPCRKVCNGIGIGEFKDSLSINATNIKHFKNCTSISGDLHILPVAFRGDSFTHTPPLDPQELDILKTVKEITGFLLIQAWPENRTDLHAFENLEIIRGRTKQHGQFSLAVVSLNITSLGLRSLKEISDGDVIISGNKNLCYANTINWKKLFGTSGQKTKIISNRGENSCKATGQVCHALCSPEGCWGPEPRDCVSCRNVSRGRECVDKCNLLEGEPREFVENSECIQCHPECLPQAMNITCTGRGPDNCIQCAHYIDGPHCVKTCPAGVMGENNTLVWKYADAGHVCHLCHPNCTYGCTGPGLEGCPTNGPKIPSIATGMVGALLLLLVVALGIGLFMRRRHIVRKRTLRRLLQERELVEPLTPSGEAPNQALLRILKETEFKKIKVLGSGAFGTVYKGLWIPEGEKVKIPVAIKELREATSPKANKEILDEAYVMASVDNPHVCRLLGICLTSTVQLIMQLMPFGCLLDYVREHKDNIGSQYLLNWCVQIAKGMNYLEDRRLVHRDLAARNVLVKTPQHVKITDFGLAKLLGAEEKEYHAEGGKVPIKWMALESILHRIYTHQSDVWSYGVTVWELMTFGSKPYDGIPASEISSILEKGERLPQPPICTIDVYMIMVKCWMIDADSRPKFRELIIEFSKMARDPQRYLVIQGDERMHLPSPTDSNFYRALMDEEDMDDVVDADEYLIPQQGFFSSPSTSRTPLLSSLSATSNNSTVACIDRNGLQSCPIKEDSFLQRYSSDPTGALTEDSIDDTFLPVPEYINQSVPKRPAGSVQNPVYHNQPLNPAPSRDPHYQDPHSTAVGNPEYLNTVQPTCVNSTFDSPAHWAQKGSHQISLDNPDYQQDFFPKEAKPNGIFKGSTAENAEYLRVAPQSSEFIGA
ASSAY METHOD TEXT: Enzymologic experiment of T790M mutant-type EGFR (TR-FRET)
Assay type: biochemical
CONDITION INFO: ratio WT IC50 / T790M IC50, enzyme
ASSAY ENDPOINT: Selectivity of wild-type/mutant-type

> print(dat)
                               smiles.entry                        assay.endpoint  result
1  C=CCn1cc(-c2ccnc(Nc3cc(NC(=O)C=C)c(N(C)CCNC)cc3OC)n2)c2ccccc21  Selectivity of wild-type/mutant-type   10.17
2  C=CC(=O)Nc1cc(Nc2nccc(-n3ncc4cc(C#N)ccc43)n2)c(OC)cc1N(C)CCN(C)C  Selectivity of wild-type/mutant-type    9.68

A. C=CC(=O)Nc1cc(Nc2nccc(-n3ncc4c(OC)cccc43)n2)c(OC)cc1N(C)CCN1CCCC1
B. C=CC(=O)Nc1cc(Nc2ncc(Cl)c(-n3nc(CCC)c4cc(C#N)ccc43)n2)c(OC)cc1N(C)CCN(C)C
Sorting by Selectivity of wild-type/mutant-type in descending order, would A or B appear first? Your answer should be the label attached to the chosen record.
B

###

TARGET ENTITY: exon 20 T790M mutant-type EGFR enzyme (Homo sapiens, UniProt P00533, T790M)
ASSAY METHOD TEXT: Enzymologic experiment of T790M mutant-type EGFR (TR-FRET)
Format: biochemical
CONDITION INFO: ratio WT IC50 / T790M IC50, enzyme
Protocol: 2) 1 to 5 μL of diluted solution in gradient of the compound was added. 3) The mixture was incubated for 10 minutes at room temperature. 6) 5 μL of EDTA stop solution was added to terminate the reaction for 5 minutes. 7) […] of a test solution containing the labeled antibody was added, and the mixture was incubated at room temperature for 1 hour. 9) The inhibition rates were calculated according to the fluorescence signal values. […]
ASSAY ENDPOINT: Selectivity of wild-type/mutant-type

Answered examples (4):
> print(dat)
                                   compound  result
1  C=CC(=O)Nc1cc(Nc2nccc(-c3cn(C)c4cc(C#N)ccc34)n2)c(OC(F)F)cc1N(C)CCN(C)C    5.44
2  C=CC(=O)Nc1cc(Nc2nccc(-n3cnc4cc(OC)ccc43)n2)c(OC)cc1N(C)CCN(C)C    12.7
3  C=CC(=O)Nc1cc(Nc2nccc(-n3nc(C4CC4)c4ccccc43)n2)c(OC)cc1N(C)CCN(C)C [Example 44]    6.58
4  C=CC(=O)Nc1cc(Nc2nccc(-c3cn(C4CC4)c4ccccc34)n2)c(OC(F)F)cc1N(C)CCN(C)C    18.7

I. C=CC(=O)Nc1cc(Nc2ncc(C(F)(F)F)c(-n3nc(C4CC4)c4cc(OC)ccc43)n2)c(OC)cc1N(C)CCN(C)C
II. C=CC(=O)Nc1cc(Nc2nccc(-c3cn(C4CC4)c4ccccc34)n2)c(OC)cc1N(C)CCN1CCOCC1
Sorting by Selectivity of wild-type/mutant-type in descending order, would I or II appear first? Your answer should be the label attached to the chosen record.
II

###

Tested on: A431 cells
ASSAY METHOD TEXT: Inhibition of A431 cell proliferation (CellTiter-Glo)
Type: cell-based
CONDITION INFO: Homo sapiens, A-431, 72 h, read-out: EGFR IC50 (nM) A431
ASSAY ENDPOINT: IC50 (nM)

Answered examples (3):
> print(dat)
                                   molecule  unit.spec  result
1  C=CC(=O)Nc1cc(Nc2nccc(-c3cn(C)c4cc(OC)ccc34)n2)c(OC(F)F)cc1N(C)CCN(C)C [Example 4]         nM     158
2  C=CC(=O)Nc1cc(Nc2nccc(-n3ncc4c(OC)cccc43)n2)c(OC)cc1N(C)CCN(C)C [Example 41]         nM     138
3  C=CC(=O)Nc1cc(Nc2nccc(-n3nc(C)c4cc(C#N)ccc43)n2)c(OC)cc1N(C)CCN(C)C [Example 56]         nM     688

a. C=CC(=O)Nc1cc(Nc2nccc(-c3cn(C)c4ccc(F)c(F)c34)n2)c(OC)cc1N(C)CCN(C)C [Example 90]
b. C=CC(=O)Nc1cc(Nc2nccc(-c3cn(C(C)=O)c4ccccc34)n2)c(OC(F)F)cc1N(C)CCN(C)C [Example 7]
c. C=CC(=O)Nc1cc(Nc2nccc(-c3cn(C)c4cc(C=C)ccc34)n2)c(OC)cc1N(C)CCN(C)C [Example 96]
d. COc1cc(N(C)CCN(C)C)c(NC(=O)/C=C/CN(C)C)cc1Nc1nccc(-c2cn(C3CC3)c3ccccc23)n1 [Example 122]
e. C=CC(=O)Nc1cc(Nc2nccc(-c3c[nH]c4c(C5CC5)cccc34)n2)c(OC)cc1N(C)CCN(C)C [Example 92]
List items by IC50 in falling order. # format: label list in the order the request specifies
d, c, b, a, e

###

TARGET ENTITY: exon 20 T790M mutant-type EGFR enzyme (Homo sapiens, UniProt P00533, T790M)
ASSAY METHOD TEXT: Enzymologic experiment of T790M mutant-type EGFR (TR-FRET)
Assay type: biochemical
CONDITION INFO: T790M EGFR enzyme, TR-FRET, ATP 1 to 10 uM
ASSAY ENDPOINT: IC50 (nM)

P. C=CC(=O)Nc1cc(Nc2nccc(-c3cn(C4CC4)c4ccccc34)n2)c(OC(F)F)cc1N(C)CCN(C)C
Q. C=CC(=O)Nc1cc(Nc2nccc(-c3cn(C)c4cc(F)c(F)cc34)n2)c(OC)cc1N(C)CCN(C)C
Sorting by IC50 in descending order, would P or Q appear first? Your answer should be the label attached to the chosen record.
Q
(Q: 1.83 nM, P: 0.32 nM)

1. C#Cc1ccc2c(-c3ccnc(Nc4cc(NC(=O)C=C)c(N(C)CCN(C)C)cc4OC)n3)cn(C)c2c1
2. C=CC(=O)Nc1cc(Nc2nccc(-c3cn(C)c4c(C5CC5)cccc34)n2)c(OC)cc1N(C)CCN(C)C
Sorting by IC50 in descending order, would 1 or 2 appear first? Your answer should be the label attached to the chosen record.
2

###

TARGET ENTITY: wild-type EGFR enzyme (Homo sapiens, UniProt P00533)
Sequence (P00533 25-1210): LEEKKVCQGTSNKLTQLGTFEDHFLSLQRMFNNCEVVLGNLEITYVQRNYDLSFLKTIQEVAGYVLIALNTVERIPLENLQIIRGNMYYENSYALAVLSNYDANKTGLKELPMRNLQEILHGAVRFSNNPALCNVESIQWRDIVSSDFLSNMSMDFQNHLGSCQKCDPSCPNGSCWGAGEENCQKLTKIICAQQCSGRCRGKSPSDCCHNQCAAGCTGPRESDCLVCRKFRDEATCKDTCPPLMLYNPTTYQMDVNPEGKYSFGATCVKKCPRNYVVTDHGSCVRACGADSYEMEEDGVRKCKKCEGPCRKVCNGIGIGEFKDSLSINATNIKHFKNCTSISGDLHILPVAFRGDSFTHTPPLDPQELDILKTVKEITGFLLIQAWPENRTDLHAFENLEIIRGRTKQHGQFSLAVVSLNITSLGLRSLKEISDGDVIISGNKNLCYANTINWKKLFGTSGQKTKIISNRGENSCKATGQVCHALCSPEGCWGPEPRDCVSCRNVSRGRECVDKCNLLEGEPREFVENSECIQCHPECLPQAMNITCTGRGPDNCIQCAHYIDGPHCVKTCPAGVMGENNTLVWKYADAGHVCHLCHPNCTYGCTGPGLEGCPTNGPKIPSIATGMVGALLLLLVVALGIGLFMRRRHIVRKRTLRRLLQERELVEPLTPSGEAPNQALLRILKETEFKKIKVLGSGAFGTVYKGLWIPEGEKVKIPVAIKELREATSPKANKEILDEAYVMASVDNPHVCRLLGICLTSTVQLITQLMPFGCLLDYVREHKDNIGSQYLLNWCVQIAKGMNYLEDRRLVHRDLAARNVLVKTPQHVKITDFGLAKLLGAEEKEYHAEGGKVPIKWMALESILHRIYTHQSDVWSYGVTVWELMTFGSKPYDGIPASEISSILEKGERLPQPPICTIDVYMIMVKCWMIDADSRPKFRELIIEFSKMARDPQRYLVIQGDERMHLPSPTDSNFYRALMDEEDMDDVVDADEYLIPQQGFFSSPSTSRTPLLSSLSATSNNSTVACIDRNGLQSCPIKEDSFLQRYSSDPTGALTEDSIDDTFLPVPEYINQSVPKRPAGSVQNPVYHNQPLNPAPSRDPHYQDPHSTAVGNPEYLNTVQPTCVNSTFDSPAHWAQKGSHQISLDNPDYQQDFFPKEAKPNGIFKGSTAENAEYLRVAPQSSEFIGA
ASSAY METHOD TEXT: Enzymologic experiment of wild-type (WT) EGFR (TR-FRET)
Format: biochemical
CONDITION INFO: ATP 0.1 to 5 uM
ASSAY ENDPOINT: IC50 (nM)

> print(dat)
                                   compound  result
1  C=CC(=O)Nc1cc(Nc2nccc(-n3ncc4cc(OCCOC)ccc43)n2)c(OC)cc1N(C)CCN1CCCC1 [Example 134]    19.9

1. C=CC(=O)Nc1cc(Nc2nccc(-n3ncc4cc(OCCOC)ccc43)n2)c(OC)cc1N(C)CCN(C)C [Example 121]
2. C=CC(=O)Nc1cc(Nc2nccc(-c3cn(C)c4cc(OC)ccc34)n2)c(OC)cc1N(C)CCN(C)C [Example 25]
Sorting by IC50 in descending order, would 1 or 2 appear first? Your answer should be the label attached to the chosen record.
2

###

TARGET ENTITY: exon 20 T790M mutant-type EGFR enzyme (Homo sapiens, UniProt P00533, T790M)
ASSAY METHOD TEXT: Enzymologic experiment of T790M mutant-type EGFR (TR-FRET)
Assay type: biochemical
CONDITION INFO: T790M EGFR enzyme, TR-FRET, ATP 1 to 10 uM
ASSAY ENDPOINT: IC50 (nM)

Answered examples (3):
> print(dat)
                                   compound                             target.entity  unit.spec  result
1  C=CC(=O)Nc1cc(Nc2ncc(Cl)c(-n3ncc4cc(C#N)ccc43)n2)c(OC)cc1N(C)CCN(C)C [Example 51]  exon 20 T790M mutant-type EGFR enzyme (Homo sapiens, UniProt P00533, T790M)         nM    0.53
2  C=CC(=O)Nc1cc(Nc2ncc(Cl)c(-c3cn(C)c4cc(OC)ccc34)n2)c(OC)cc1N(C)CCN(C)C [Example 98]  exon 20 T790M mutant-type EGFR enzyme (Homo sapiens, UniProt P00533, T790M)         nM     0.2
3  C=CC(=O)Nc1cc(Nc2ncc(C(F)(F)F)c(-n3nc(OC)c4cc(Cl)ccc43)n2)c(OC)cc1N(C)CCN(C)C [Example 109]  exon 20 T790M mutant-type EGFR enzyme (Homo sapiens, UniProt P00533, T790M)         nM    5.18

P. C=CC(=O)Nc1cc(Nc2ncc(Cl)c(-n3ncc4cc(OC)ccc43)n2)c(OC)cc1N(C)CCN(C)C [Example 48]
Q. C=CC(=O)Nc1cc(Nc2nccc(-n3nc(C)c4cc(OC)c(OC)cc43)n2)c(OC)cc1N(C)CCN(C)C [Example 53]
R. C=CC(=O)Nc1cc(Nc2nccc(-n3nc(C)c4cc(C#N)ccc43)n2)c(OC)cc1N(C)CCN(C)C [Example 56]
List items by IC50 in falling order. # format: label list in the order the request specifies
Q, R, P
